The measured values listed here are drawn from PubChem BioAssay (Tox21).

Biological target: Thyrotropin receptor (Homo sapiens)
Test: qHTS assay to identify small molecule antagonists of the thyroid stimulating hormone receptor (TSHR) signaling pathway (AID 1259385); also: nearly all actives have a fitted effect of over 20% in size
Settings: TSHR-HEK293 cAMP HTRF, TSH-stimulated antagonist mode; series mostly up to 92.4 µM
Experimental: U.S. Tox21 Program National Center for Advancing Translational Sciences [NCATS] NIH Chemical Genomics Center [NCGC] U.S. Environmental Protection Agency [EPA] National Institutes of Environmental Health Sciences [NIEHS] National Toxicology Program [NTP] […] Tox21 Assay Protocol Summary: TSHR-Hek293 cells were dispensed at 800 cells/4uL/well in 1536-well white plates using a Multidrop dispenser. […] The fluorescence intensity in the plates was measured using an Envision plate reader. […]
Inconclusive results are not listed. Activity calls are given as the source filed them. Calls follow the shape of the full dose curve.
Labels: active, inactive

>>> class_label("Cc1cccc(N(C)C(=S)Oc2ccc3ccccc3c2)c1")
"inactive"
>>> class_label("CC(C)CC(C)(O)C#CC(C)(O)CC(C)C (centres undefined)")
"inactive"
>>> class_label("O=P(O)(O)O")
"inactive"
>>> class_label("O=C(c1ccccc1)c1ccccc1O")
"inactive"
>>> class_label("Cn1cnc([N+](=O)[O-])c1Sc1ncnc2nc[nH]c12")
"inactive"
>>> class_label("C#C[C@]1(O)CC[C@H]2[C@@H]3CCc4cc(OC)ccc4[C@H]3CC[C@@]21C")
"inactive"
>>> class_label("OCCO")
"inactive"
>>> class_label("O=C(Nc1ccc(Cl)cc1)Nc1ccc(Cl)c(Cl)c1")
"active"
>>> class_label("O=C1OC2(c3cc(Br)c(O)c(Br)c3Oc3c2cc(Br)c(O)c3Br)c2c(Cl)c(Cl)c(Cl)c(Cl)c21")
"inactive"
